Assayed System: MST4 (human) (UniProt Q9P289)
Sequence (Q9P289 whole entry, looked up): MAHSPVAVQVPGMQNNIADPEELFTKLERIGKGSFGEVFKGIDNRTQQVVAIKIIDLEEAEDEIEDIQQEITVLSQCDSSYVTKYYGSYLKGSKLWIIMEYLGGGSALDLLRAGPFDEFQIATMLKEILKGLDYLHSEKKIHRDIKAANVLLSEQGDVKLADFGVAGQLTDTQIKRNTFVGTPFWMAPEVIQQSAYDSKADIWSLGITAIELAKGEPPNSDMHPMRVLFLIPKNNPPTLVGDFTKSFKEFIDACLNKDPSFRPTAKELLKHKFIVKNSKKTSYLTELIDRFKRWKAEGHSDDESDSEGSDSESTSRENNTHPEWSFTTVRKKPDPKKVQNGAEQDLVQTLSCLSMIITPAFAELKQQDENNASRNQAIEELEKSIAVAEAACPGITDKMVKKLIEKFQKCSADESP
Measurement Protocol: radiometric filter-binding kinase assay, Kinase HotSpot
Condition Notes: compound 0.5 µM; ATP 10 µM
molecules and their reported residual activity
Property Measured: residual activity (%)

1. O=C(O)c1ccc2c3c1cccc3c(=O)n1c3ccccc3nc21; 97.8
2. COc1cc2c(Nc3ccc(Br)cc3F)ncnc2cc1OCC1CCN(C)CC1; 102
3. N/C(=N\N=C/c1ccc(-c2cccc([N+](=O)[O-])c2)o1)N[N+](=O)[O-]; 99.5
4. CN[C@@H]1C[C@H]2O[C@@](C)([C@@H]1OC)n1c3ccccc3c3c4c(c5c6ccccc6n2c5c31)C(=O)NC4; 4.43
5. N#C/C(=C1/Nc2ccccc2S1)c1ccnc(NCCc2cccnc2)n1; 104
6. FC(F)(F)c1ccc(/C=C/c2nc(COc3ccc(CCCCn4ccnn4)cc3)co2)cc1; 98
7. O=C(c1ccccc1)c1ccc(N2CCOCC2)cc1O; 101
8. COc1cc2c(N3CCN(C(=O)Nc4ccc(OC(C)C)cc4)CC3)ncnc2cc1OCCCN1CCCCC1; 101
9. O=S(=O)(NCCNC/C=C/c1ccc(Br)cc1)c1cccc2cnccc12; 94.8
10. Cn1cc(/C=C2\C(=O)Nc3ccc(S(N)(=O)=O)cc32)c2ccccc21; 101
11. N#CCCc1ccc2c(c1)-c1[nH]c3ccc([N+](=O)[O-])cc3c1CC(=O)N2; 65.1
12. COc1cc2c(cc1OC)-c1[nH]nc(Nc3cccc(F)c3)c1C2; 97
13. CCCCc1c(-c2ccc(O)cc2)[nH]c2nccnc12; 79.1
14. Nc1ncnc2c1cnn2-c1ccccc1; 82.2
15. O=c1cc(N2CCOCC2)oc2c(-c3ccccc3)cccc12; 97.2

---

Assayed System: GRK7 (human) (UniProt Q8WTQ7)
Sequence (Q8WTQ7 whole entry, looked up): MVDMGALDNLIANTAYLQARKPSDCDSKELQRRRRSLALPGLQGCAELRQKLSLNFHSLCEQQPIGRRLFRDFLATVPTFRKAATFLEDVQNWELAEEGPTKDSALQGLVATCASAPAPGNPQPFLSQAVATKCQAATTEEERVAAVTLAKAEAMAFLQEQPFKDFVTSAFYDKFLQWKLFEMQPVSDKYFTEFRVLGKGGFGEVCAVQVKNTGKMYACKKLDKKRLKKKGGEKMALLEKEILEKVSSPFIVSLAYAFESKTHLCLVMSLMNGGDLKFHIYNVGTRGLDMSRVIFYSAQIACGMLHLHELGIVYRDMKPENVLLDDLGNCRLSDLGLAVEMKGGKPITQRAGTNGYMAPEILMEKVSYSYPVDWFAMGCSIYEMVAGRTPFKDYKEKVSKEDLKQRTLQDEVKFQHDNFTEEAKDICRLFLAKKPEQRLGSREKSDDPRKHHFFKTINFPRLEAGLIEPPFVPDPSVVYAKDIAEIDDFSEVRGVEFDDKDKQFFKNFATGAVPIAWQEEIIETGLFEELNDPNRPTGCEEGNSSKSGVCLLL
Measurement Protocol: radiometric filter-binding kinase assay, Kinase HotSpot
Condition Notes: compound 0.5 µM; ATP 10 µM
Measured residual activity of individual entries
Property Measured: residual activity (%)

1) O=c1[nH]c2ccccc2n1C1CCN(Cc2ccc(-c3nc4cc5[nH]cnc5cc4nc3-c3ccccc3)cc2)CC1; 98.5
2) COc1cc2ncnc(Nc3ccc(O)c(Br)c3)c2cc1OC; 96.4
3) COc1cc2c(Nc3ccc(Br)cc3F)ncnc2cc1OCC1CCN(C)CC1; 96.4
4) N#CCCc1ccc2c(c1)-c1[nH]c3ccc([N+](=O)[O-])cc3c1CC(=O)N2; 97.7
5) O=C(O)c1ccc2c3c1cccc3c(=O)n1c3ccccc3nc21; 102

---

Assayed System: PRKD3 (human)
Measurement Protocol: radiometric filter-binding kinase assay, Kinase HotSpot
Condition Notes: compound 0.5 µM; ATP 10 µM
Property Measured: residual activity

1. O=c1c(-c2ccc(F)cc2)c(-c2ccncc2)[nH]n1-c1ccc(Cl)cc1; 74.5%
2. Cc1cc(Nc2nc(-c3ccccc3)nc3ccccc23)n[nH]1; 93.9%
3. N/C(=N\N=C/c1ccc(-c2cccc([N+](=O)[O-])c2)o1)N[N+](=O)[O-]; 93.9%
4. O=S(=O)(NCCNC/C=C/c1ccc(Br)cc1)c1cccc2cnccc12; 79.2%
5. O=c1[nH]c2ccccc2n1C1CCN(Cc2ccc(-c3nc4cc5[nH]cnc5cc4nc3-c3ccccc3)cc2)CC1; 99.5%

---

Assayed System: UniProt:O75116
Sequence (O75116 whole entry, looked up): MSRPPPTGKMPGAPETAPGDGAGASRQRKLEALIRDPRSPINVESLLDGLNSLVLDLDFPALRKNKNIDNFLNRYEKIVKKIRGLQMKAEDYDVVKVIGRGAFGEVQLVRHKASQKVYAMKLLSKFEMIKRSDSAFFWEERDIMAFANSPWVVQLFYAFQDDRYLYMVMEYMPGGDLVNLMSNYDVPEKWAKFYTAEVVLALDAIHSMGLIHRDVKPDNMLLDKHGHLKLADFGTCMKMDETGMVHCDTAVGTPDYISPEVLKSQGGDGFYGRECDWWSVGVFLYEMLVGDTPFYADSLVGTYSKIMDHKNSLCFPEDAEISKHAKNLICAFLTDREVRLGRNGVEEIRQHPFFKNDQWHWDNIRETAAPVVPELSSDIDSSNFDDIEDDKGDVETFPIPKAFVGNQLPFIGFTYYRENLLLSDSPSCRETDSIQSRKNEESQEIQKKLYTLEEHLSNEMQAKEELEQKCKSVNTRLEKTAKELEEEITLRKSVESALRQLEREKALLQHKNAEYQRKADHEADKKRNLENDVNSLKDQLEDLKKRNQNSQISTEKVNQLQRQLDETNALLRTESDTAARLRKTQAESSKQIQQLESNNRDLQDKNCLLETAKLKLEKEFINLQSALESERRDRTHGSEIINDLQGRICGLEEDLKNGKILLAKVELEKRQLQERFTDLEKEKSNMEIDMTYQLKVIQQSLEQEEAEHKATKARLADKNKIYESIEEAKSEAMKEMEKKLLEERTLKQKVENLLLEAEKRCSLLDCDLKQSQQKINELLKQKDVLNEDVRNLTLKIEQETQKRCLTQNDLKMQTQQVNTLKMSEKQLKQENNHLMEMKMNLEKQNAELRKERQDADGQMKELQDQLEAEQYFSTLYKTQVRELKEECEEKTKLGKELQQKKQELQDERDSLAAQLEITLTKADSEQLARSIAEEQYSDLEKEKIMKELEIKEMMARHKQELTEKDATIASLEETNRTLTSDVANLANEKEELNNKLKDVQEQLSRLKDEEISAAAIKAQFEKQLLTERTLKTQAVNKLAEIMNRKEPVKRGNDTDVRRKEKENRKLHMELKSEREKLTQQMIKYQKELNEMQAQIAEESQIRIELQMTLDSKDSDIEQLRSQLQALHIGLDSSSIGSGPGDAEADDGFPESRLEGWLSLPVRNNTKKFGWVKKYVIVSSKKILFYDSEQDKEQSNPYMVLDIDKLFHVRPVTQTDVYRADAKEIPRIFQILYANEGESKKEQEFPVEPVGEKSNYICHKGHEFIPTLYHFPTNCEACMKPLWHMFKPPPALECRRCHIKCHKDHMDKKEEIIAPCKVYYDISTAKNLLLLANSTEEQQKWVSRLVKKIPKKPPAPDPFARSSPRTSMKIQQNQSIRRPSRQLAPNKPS
Measurement Protocol: radiometric filter-binding kinase assay, Kinase HotSpot
Condition Notes: compound 0.5 µM; ATP 10 µM
Property Measured: residual activity

1) O=c1c(-c2ccc(F)cc2)c(-c2ccncc2)[nH]n1-c1ccc(Cl)cc1; 89.5%
2) Cc1cc(Nc2nc(-c3ccccc3)nc3ccccc23)n[nH]1; 87.6%
3) COc1cc2ncnc(Nc3ccc(O)c(Br)c3)c2cc1OC; 89.9%
